Provenance of the data: patent US20250042994A1

- Assay Target: T1, human CD19 exon1-3-his protein (human, UniProt P15391 20-186, limits assumed)
- T1 construct: made in HEK293E cells; also called membrane-distal end; not shown: His tag
- T1 sequence (looked up): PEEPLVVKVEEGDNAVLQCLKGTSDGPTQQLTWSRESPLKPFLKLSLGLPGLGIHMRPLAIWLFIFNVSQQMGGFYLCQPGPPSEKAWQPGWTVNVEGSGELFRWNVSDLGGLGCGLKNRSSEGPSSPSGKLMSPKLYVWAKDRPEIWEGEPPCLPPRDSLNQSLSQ
- Test Protocol: ELISA, coated at 2 ug/mL
Value Kind: binding result

binder="F2.15.26 (antibody, human IgG1, V domains shown, human-murine chimeric antibody, human IgG1) VH: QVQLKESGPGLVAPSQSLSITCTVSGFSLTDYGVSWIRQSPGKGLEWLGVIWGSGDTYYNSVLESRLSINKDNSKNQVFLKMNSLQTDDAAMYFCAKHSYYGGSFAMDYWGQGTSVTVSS VL: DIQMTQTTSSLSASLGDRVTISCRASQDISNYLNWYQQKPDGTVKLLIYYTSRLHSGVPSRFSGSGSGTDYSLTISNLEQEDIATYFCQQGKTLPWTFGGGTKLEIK" recorded_measurement="no binding"
binder="F4.145.9 (antibody, human IgG1, V domains shown, human-murine chimeric antibody, human IgG1) VH: EVQLVESGGGLVKPGGSLKLSCAAAGFAFSSYDMSWVRQIPEKRLEWVAYISAGGGNTYFLDTVKGRFTISRDHAKNTLSLQMSSLKSEDTAMYFCVRHGDYYRYFYAMDYWGQGSSVTVSS VL: DIVMTQSHKFMSTSVGDRVSITCKASQDVGTAVAWSQQKPGQSPKLLIYWASTRHTGVPDRFTGSGSGTDFTLTISNVQSEDLADYFCQQFVTYPYTFGGGTKLEIK" recorded_measurement="no binding"
binder="F4.107.12 (antibody, human IgG1, V domains shown, human-murine chimeric antibody, human IgG1) VH: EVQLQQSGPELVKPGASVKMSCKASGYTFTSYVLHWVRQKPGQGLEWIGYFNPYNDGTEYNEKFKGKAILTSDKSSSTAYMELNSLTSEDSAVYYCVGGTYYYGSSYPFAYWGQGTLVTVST VL: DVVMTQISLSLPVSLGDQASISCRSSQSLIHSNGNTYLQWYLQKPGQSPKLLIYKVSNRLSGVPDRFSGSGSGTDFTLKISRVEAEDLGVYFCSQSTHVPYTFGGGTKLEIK" recorded_measurement="no binding"
